Data origin, for the record: patent US20250289905A1

- assayed.system: T1, rat-derived WARS1 recombinant protein (rat, UniProt Q6P7B0 1-481, limits assumed)
- T1 construct: Recombinant, His-tagged (detected with anti-His tag antibody); construct not described; also called rat WARS1
- T1 sequence (looked up): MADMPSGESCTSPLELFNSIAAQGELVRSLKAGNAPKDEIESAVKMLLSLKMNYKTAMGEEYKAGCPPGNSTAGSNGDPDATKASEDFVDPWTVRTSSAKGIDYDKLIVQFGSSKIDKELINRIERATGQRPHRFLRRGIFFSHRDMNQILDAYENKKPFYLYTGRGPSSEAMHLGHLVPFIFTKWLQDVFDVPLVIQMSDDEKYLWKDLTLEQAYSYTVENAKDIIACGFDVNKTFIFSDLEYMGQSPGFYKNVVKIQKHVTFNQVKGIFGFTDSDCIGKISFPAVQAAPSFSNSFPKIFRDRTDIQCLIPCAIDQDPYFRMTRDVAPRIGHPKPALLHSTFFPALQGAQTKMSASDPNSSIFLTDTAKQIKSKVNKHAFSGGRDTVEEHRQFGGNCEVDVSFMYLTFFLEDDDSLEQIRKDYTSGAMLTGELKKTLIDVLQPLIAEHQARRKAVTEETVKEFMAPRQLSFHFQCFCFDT
- test.protocol: direct ELISA
Entries and their Kd values follow.

Reference set (2 entries):
[[record]]
binder = "SHL/LLN (antibody, V domains shown, L-CDR2 and L-CDR3 variant of GKB101; also called SHL/LLN antibody) VH: EVQLLESGGGLVQPGGSLRLSCAASGFTFSSYDMSWVRQAPGKGLEWVSAISSGGSSIYYADSVKGRFTISRDNSKNTLYLQMNSLRAEDTAVYYCARDVAWDMLGDFDYWGQGTLVTVSS VL: QSVLTQPPSASGTPGQRVTISCTGSSSNIGSNYVYWYQQLPGTAPKLLIYANLLRPSGVPDRFSGSKSGTSASLAISGLRSEDEADYYCGAWDDSNSAYVFGGGTKLTVLT"
property_label = "Kd"
result = "~1 pM"

[[record]]
binder = "SHL/QLN (antibody, V domains shown, L-CDR2 and L-CDR3 variant of GKB101; also called SHL/QLN antibody) VH: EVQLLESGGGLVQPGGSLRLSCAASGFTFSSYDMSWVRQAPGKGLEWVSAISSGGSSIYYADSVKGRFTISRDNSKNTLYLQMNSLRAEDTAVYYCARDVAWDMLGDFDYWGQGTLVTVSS VL: QSVLTQPPSASGTPGQRVTISCTGSSSNIGSNYVYWYQQLPGTAPKLLIYANQLRPSGVPDRFSGSKSGTSASLAISGLRSEDEADYYCGAWDDSNSAYVFGGGTKLTVLT"
property_label = "Kd"
result = "~1 pM"


input: Given the binder S53V (antibody, V domains shown, L-CDR2 variant of GKB101; also called S53V antibody) VH: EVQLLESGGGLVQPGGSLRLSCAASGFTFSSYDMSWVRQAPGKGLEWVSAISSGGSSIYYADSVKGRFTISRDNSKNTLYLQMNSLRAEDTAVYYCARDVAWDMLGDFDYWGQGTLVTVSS VL: QSVLTQPPSASGTPGQRVTISCTGSSSNIGSNYVYWYQQLPGTAPKLLIYANVHRPSGVPDRFSGSKSGTSASLAISGLRSEDEADYYCGAWDDSLSAYVFGGGTKLTVLT , what is its reported Kd?
output: ~1 pM
